Target: T1, Recombinant human B7-H3 (human, UniProt Q5ZPR3 29-466, limits assumed)
T1 construct: also called CD276; B7RP-2
T1 sequence: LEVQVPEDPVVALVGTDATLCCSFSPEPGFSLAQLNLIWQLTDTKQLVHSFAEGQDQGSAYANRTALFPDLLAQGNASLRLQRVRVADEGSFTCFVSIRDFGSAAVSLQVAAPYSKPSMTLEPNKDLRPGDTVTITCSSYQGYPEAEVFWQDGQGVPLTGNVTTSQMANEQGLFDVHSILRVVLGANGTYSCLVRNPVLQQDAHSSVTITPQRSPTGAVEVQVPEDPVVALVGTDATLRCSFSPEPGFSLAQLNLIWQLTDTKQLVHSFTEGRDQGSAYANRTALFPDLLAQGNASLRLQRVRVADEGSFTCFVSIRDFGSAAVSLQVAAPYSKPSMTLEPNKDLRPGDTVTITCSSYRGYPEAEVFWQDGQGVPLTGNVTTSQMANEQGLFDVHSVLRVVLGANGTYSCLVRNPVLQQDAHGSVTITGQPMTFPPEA
Test: SPR (such as Biacore T200), against human B7-H3
Result Type: koff (s⁻¹)

1. SCT-Da192 (antibody, V domains shown) VH: EVQLQQSGPELVKPGASVKISCKTSGYTFTEYTMHWVKQSHGKSLEWIGVINPNNGGTTYNQKFKGKATLTVDKSSSTAYMELRSLTSEDSAVYYCARPHSLLRLRREFDYWGQGTTLTVSS VL: QIVLTQSPALMSASPGEKVTMTCSASSSVSYMYWYQQKPRSSPKPWIYLTSNLASGVPARFSGSGSGTSYSLTISSMEAEDAATYYCQQWSSNPLTFGAGTKLELK ... 0.00203

# credit: patent US20220235134A1
